Reference for the values: patent US20220195023A1

- Tgt: (NPNA)3 (Plasmodium falciparum)
- Assay Text: SPR, antibody on chip
Observation Type: pKd
Scale note: pKd = -log10(concentration in M).

Fill in the blank: the reported pKd of AB-007028 (antibody, V domains shown) VH: QMQLVESGGGVVQPGRSLRLSCAASGFTFSTYAMHWVRQAPGQGLQWVAVISYHSTNKYYEDSVRGRFTISRDNSKNTLYLQMNSLRAEDTAVYYCARDGYSSSFFDFWGQGTLVTVSS VL: DIQMTQSPSTLSASVGDRVTITCRASQSISRWLAWYQQQPGKAPKLLMSGASVLESGVPSRFSGSGSGTEFTLTISSLQPDDFATYYCQHYNSYFVTFGQGTKVEIK is ____.
8.27

Form field: reported pKd of AB-007059 (antibody, V domains shown) VH: QMQLVESGGGVVQPGRSLRLSCTASGFTFSTYAMHWVRQSPGQGLQWVAVISYHSTNKYYEDSVRGRFTISRDNSKNTLYLQMNSLRAEDTAVYYCARDGYSSTFFDFWGQGTLVTVSS VL: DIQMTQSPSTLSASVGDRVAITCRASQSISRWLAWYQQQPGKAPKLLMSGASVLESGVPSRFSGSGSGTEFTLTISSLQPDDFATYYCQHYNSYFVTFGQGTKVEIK
6.76

Which pKd is listed for AB-007057 (antibody, V domains shown) VH: QMQLVESGGGVVQPGRSLRLSCTASGFTFSTYAMHWVRQSPGQGLQWVAVISYHSTNKYYEDSVRGRFTISRDNSKNTLYLQMNSLRAEDTAVYYCARDGYHSSFFDFWGQGTLVTVSS VL: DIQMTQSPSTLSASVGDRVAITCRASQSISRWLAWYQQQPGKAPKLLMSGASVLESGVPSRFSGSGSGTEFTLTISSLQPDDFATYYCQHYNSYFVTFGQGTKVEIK ?
7.39
